Target: human Y4 receptor (human, UniProt P50391 1-375)
Sequence (P50391 whole entry): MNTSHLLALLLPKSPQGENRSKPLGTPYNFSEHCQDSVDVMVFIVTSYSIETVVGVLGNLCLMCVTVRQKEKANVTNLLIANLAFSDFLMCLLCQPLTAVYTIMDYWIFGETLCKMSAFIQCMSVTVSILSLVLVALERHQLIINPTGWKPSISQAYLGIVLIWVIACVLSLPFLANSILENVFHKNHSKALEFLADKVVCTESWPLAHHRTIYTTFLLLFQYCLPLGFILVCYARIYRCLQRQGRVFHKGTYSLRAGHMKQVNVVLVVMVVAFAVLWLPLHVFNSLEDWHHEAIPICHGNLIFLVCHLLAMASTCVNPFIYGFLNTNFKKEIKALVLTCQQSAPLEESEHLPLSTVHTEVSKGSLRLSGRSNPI
Assay: 125I-PP displacement
// assign met if IC50 falls strictly below 80 pM, else not met (ties count as not met)

>>> print(df.to_string())
                                     binder  labelclass
0  PAPLEPHYPGDNATPEELAKYAAELRRYINKLTRPRY [4058678]     not met

Given the entry AAPLEPHYPGDNATPEELAKYAAELRRYINKLTRPRY [4058704] , would its reported IC50 be below 80 pM? not met

Given the entry APLEPEYPGDDATPQEMARYAAELRRYINKLTRPRY [4058680] , would its reported IC50 be below 80 pM? met

Given the entry PAPLEPKYPGDNASPEQMAKYAAELRRYINKLTRPRY [4058669] , would its reported IC50 be below 80 pM? met

Given the entry PAPLEPKYPGDNATPEELAKYAAELRRYINKLTRPRY [4058671] , would its reported IC50 be below 80 pM? not met

Given the entry APLEPKYPGDNATPEELAKYAAELRRYINKLTRPRY [4058688] , would its reported IC50 be below 80 pM? not met
